tested on: 282377-053-R-J1-PDC complex spheroid viability; assay: Anticancer human tumor 282377-053-R-J1-PDC patient-derived colon adenocarcinoma cell line growth inhibition [RAS]; conditions: second compound 0.03 µM; first compound 0.0316 µM; stronger effect = lower value
measured-quantity: viability, T/C (%)
Reply numerically in %, unit not repeated.

- compound: "CCC(CC)c1cc(NC2CCC(N)C2)n2nccc2n1 (centres undefined) + CCn1c(-c2cc(N3CCN(C)CC3)cnc2C(C)OC)c2c3cc(ccc31)-c1csc(n1)CC(NC(=O)C1CC1C)C(=O)N1CCCC(N1)C(=O)OCC(C)(C)C2"
  tgt: "282377-053-R-J1-PDC complex spheroid viability"
  units: "%"
  meas-value: 76
- compound: "Cc1nc(N2CCC3(CC2)COC(C)C3N)c(CO)nc1Sc1ccnc(N)c1Cl (centres undefined) + CCn1c(-c2cccnc2C(C)OC)c2c3cc(ccc31)N1CCOC(CC(NC(=O)C(C(C)C)N(C)C(=O)C3(F)CCN(C(=O)C#CC(C)(C)N(C)C)CC3)C(=O)N3CCCC(N3)C(=O)OCC(C)(C)C2)C1"
  tgt: "282377-053-R-J1-PDC complex spheroid viability"
  units: "%"
  meas-value: 101
- compound: "C=CC(=O)N1CCN(c2nc(OCC3CCCN3C)nc3c(F)c(-c4nc(N)cc(C)c4C(F)(F)F)c(Cl)cc23)C(C)C1 (centres undefined) + CCn1c(-c2cc(N3CCN(C)CC3)cnc2C(C)OC)c2c3cc(ccc31)-c1csc(n1)CC(NC(=O)C1CC1C)C(=O)N1CCCC(N1)C(=O)OCC(C)(C)C2"
  tgt: "282377-053-R-J1-PDC complex spheroid viability"
  units: "%"
  meas-value: 88.1

Consider the additional compound presented here.
Query: Quick one: viability, T/C of CCN1CCN(Cc2ccc(Nc3ncc(F)c(-c4cc(F)c5nc(C)n(C(C)C)c5c4)n3)nc2)CC1 + CCn1c(-c2cccnc2C(C)OC)c2c3cc(ccc31)N1CCOC(CC(NC(=O)C(C(C)C)N(C)C(=O)C3(F)CCN(C(=O)C#CC(C)(C)N(C)C)CC3)C(=O)N3CCCC(N3)C(=O)OCC(C)(C)C2)C1 ?
Reply: 113

###

test system: 282377-053-R-J1-PDC complex spheroid viability; assay: Anticancer human tumor 282377-053-R-J1-PDC cell line growth inhibition [RAS]; settings: second compound 0.0949 µM; first compound 0.1 µM; stronger effect = lower value;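 further: spheroids exposed to agents for seven days before readout; luminescence viability as percent of DMSO vehicle control wells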
measured-quantity: viability, T/C (%)
Reply numerically in %, unit not repeated.

- compound: "Cc1nc(N2CCC3(CC2)COC(C)C3N)c(CO)nc1Sc1ccnc(N)c1Cl (configuration not stated) + CCn1c(-c2cccnc2C(C)OC)c2c3cc(ccc31)N1CCOC(CC(NC(=O)C(C(C)C)N(C)C(=O)C3(F)CCN(C(=O)C#CC(C)(C)N(C)C)CC3)C(=O)N3CCCC(N3)C(=O)OCC(C)(C)C2)C1"
  units: "%"
  meas-value: 96.2

Consider the additional compound presented here.
Query: Give recorded viability, T/C with 282377-053-R-J1-PDC complex spheroid viability for the following compound: C=CC(=O)N1CCN(c2nc(OCC3CCCN3C)nc3c(F)c(-c4nc(N)cc(C)c4C(F)(F)F)c(Cl)cc23)C(C)C1 (configuration not stated) + CCn1c(-c2cccnc2C(C)OC)c2c3cc(ccc31)N1CCOC(CC(NC(=O)C(C(C)C)N(C)C(=O)C3(F)CCN(C(=O)C#CC(C)(C)N(C)C)CC3)C(=O)N3CCCC(N3)C(=O)OCC(C)(C)C2)C1
Reply: 109

Data credit: PubChem BioAssay AID2060905
